system: normal Vero cell line (Vero CCL-81); experiment: Normotoxicity assessment, normal Vero cell line; assay type: cell-based, African Green Monkey; settings: Chlorocebus sabaeus; normal Vero CCL-81 cells, cytotoxicity
pIC50: −log10 of the molar value.
recorded metric: pIC50

- CCOC(=O)C1=C(N/C(=C(/C#N)C(=O)OCC)c2ccc(C)cc2)Oc2cc(O)c(/N=N/c3ccc(S(=O)(=O)Nc4cc(C)no4)cc3)cc2C1c1ccc(C)cc1 (stereo not shown) [11e]: 3.79
- CCOC(=O)C1=C(N/C(=C(/C#N)C(=O)OCC)c2ccc(C)cc2)Oc2cc(O)c(/N=N/c3ccc(S(N)(=O)=O)cc3)cc2C1c1ccc(C)cc1 (stereo not shown) [11a]: 3.86
- CCOC(=O)C1=C(N/C(=C(/C#N)C(=O)OCC)c2ccc(C)cc2)Oc2cc(O)c(/N=N/c3ccc(S(=O)(=O)Nc4nccs4)cc3)cc2C1c1ccc(C)cc1 (stereo not shown) [11d]: 3.56
- CCOC(=O)C1=C(N/C(=C(/C#N)C(=O)OCC)c2ccc(C)cc2)Oc2cc(O)c(/N=N/c3ccc(S(=O)(=O)NC(=N)N)cc3)cc2C1c1ccc(C)cc1 (stereo not shown) [11c]: 3.48

---

Tested on: human colon carcinoma (HCT-116)
Experiment: MTT cytotoxicity, HCT-116
Assay type: cell-based
Conditions: Homo sapiens, HCT-116 cells
Description: Three human tumorous cell lines—human colon carcinoma (HCT-116), human liver carcinoma (HepG-2), and human breast adenocarcinoma (MCF-7)—were subjected to cytotoxic behavior, employing the MTT analysis. Moreover, a normotoxicity assessment was employed against normal Vero cell line (African Green Monkey Kidney cells) for selected active compounds to determine their therapeutic safety. […]
Catalogue of log10 of IC50 readings, one per entry.
recorded metric: log10 of IC50 (log10 of the value in µM)

* CCOC(=O)C1=C(N/C(=C(/C#N)C(=O)OCC)c2ccc(C)cc2)Oc2cc(O)c(/N=N/c3ccc(S(N)(=O)=O)cc3)cc2C1c1ccc(C)cc1 (stereo not shown) [11a] | 1.09
* CCOC(=O)C1=C(N)Oc2cc(O)c(/N=N/c3ccc(S(N)(=O)=O)cc3)cc2C1c1ccc(F)cc1 (stereo not shown) | 0.90
* CCOC(=O)C1=C(N)Oc2cc(O)c(/N=N/c3ccc(S(N)(=O)=O)cc3)cc2C1c1ccc([N+](=O)[O-])cc1 (stereo not shown) | 2.06
* CCOC(=O)C1=C(N/C(=C(/C#N)C(=O)OCC)c2ccc(C)cc2)Oc2cc(O)c(/N=N/c3ccc(S(=O)(=O)NC(=N)N)cc3)cc2C1c1ccc(C)cc1 (stereo not shown) [11c] | 1.90
* CCOC(=O)C1=C(N/C(=C(/C#N)C(=O)OCC)c2ccc(C)cc2)Oc2cc(O)c(/N=N/c3ccc(S(=O)(=O)Nc4nccs4)cc3)cc2C1c1ccc(C)cc1 (stereo not shown) [11d] | 0.80
* CCOC(=O)C1=C(N/C(=C(/C#N)C(=O)OCC)c2ccc(C)cc2)Oc2cc(O)c(/N=N/c3ccc(S(=O)(=O)NC(C)=O)cc3)cc2C1c1ccc(C)cc1 (stereo not shown) [11b] | 1.59
* CCOC(=O)C1=C(N)Oc2cc(O)c(/N=N/c3ccc(S(N)(=O)=O)cc3)cc2C1c1ccc(Cl)cc1 (stereo not shown) | 0.55
* CCOC(=O)C1=C(N)Oc2cc(O)c(/N=N/c3ccc(S(N)(=O)=O)cc3)cc2C1c1ccc(C)cc1 (stereo not shown) | 1.24
* CCOC(=O)C1=C(N)Oc2cc(O)c(/N=N/c3ccc(S(N)(=O)=O)cc3)cc2C1c1ccccc1 (stereo not shown) | 0.83
* COc1cccc2c1C(=O)c1c(O)c3c(c(O)c1C2=O)C[C@@](O)(C(=O)CO)C[C@@H]3O[C@H]1C[C@H](N)[C@H](O)[C@H](C)O1 [Doxorubicin, reference compound] | -0.05
* CCOC(=O)C1=C(N)Oc2cc(O)c(/N=N/c3ccc(S(N)(=O)=O)cc3)cc2C1c1ccc(Cl)cc1Cl (stereo not shown) | 0.24
* CCOC(=O)C1=C(N/C(=C(/C#N)C(=O)OCC)c2ccc(C)cc2)Oc2cc(O)c(/N=N/c3ccc(S(=O)(=O)Nc4cc(C)no4)cc3)cc2C1c1ccc(C)cc1 (stereo not shown) [11e] | 1.26
* CCOC(=O)C1=C(N)Oc2cc(O)c(/N=N/c3ccc(S(N)(=O)=O)cc3)cc2C1c1ccc(OC)cc1 (stereo not shown) | 1.85
